- target.desc: T1, human MSLN (mesothelin) (human, UniProt Q13421 296-598)
- T1 construct: The construct coated on the plates is not described; also called human mesothelin
- protocol.description: ELISA on human MSLN, B cell culture supernatant, 2nd screening
assay.readout: Optical Density (Anti-MSLN reactivity, 2nd screening) (OD)

178F16 (rabbit anti-MSLN mAb) (antibody, V domains shown) VH: QSLEESGGRLVTPGTPLTLTCTASGFSLSNYAMTWVRQAPGKGLEYIGIISTGGITYYMDSAKGRFTISRTSTTVDLKMTSLTTEDTATYFCGRNAGGSYIFYYFDLWGQGTLVTVSS VL: AFELTQTPSSVEAAVGGTVTIKCQASQSIYSYLAWYQQKPGQPPKLLIYSASTLASGVSSRFRGSGSGTEYILTISDLECADAATYYCQTYYDIVTSTFGGGTEVVVK : 1.88
